Reference source: patent US8404696B2

System: pentylentetrazole (PTZ)-induced convulsion
Assay summary: Anti-convulsant effect, pentylentetrazole (PTZ) test
Assay type: in vivo
Condition context: 10 mg/kg intraperitoneally; PTZ 80 mg/kg subcutaneously; negative control 46.7 ± 3.3
Duration of convulsion: recorded values

The examples below pair each entry with its known result.
Smiles notation	Target entity	Duration of convulsion
CC(=O)N(CCCCn1c(=O)[nH]c2ccccc2c1=O)CCCn1c(=O)[nH]c2ccccc2c1=O	pentylentetrazole (PTZ)-induced convulsion	7.0 ± 3.2 min
CCCCCCn1c(=O)n(CCCNCCCCNCCCn2c(=O)c3ccccc3n(CCCCCC)c2=O)c(=O)c2ccccc21	pentylentetrazole (PTZ)-induced convulsion	36.6 ± 7.6 min
CS(=O)(=O)N(CCCCN(CCCn1c(=O)[nH]c2ccccc2c1=O)S(C)(=O)=O)CCCn1c(=O)[nH]c2ccccc2c1=O	pentylentetrazole (PTZ)-induced convulsion	5.2 ± 3.4 min

Exam item: Consider the compound shown here: `CS(=O)(=O)N(CCCCNCCCn1c(=O)[nH]c2ccccc2c1=O)CCCn1c(=O)[nH]c2ccccc2c1=O` What is its recorded Duration of convulsion?
Marked response: 39.3 ± 8.8 min

Exam item: // returns reported Duration of convulsion for input `CC(=O)N(CCCCNCCCNC(=O)c1ccc(O)cc1)CCCn1c(=O)[nH]c2ccccc2c1=O`
Marked response: 0.9 ± 1.9 min

Exam item: // query Duration of convulsion value for entry `CC(=O)N(CCCCNCCCn1c(=O)[nH]c2ccccc2c1=O)CCCNC(=O)c1ccc(O)cc1`
Marked response: 1.8 ± 2.7 min

Exam item: Given the compound `CC(=O)N(CCCCN(CCCn1c(=O)[nH]c2ccccc2c1=O)C(C)=O)CCCNC(=O)c1ccc(O)cc1` , what is its reported Duration of convulsion?
Marked response: 6.7 ± 3.1 min

Exam item: Recorded Duration of convulsion of `O=c1[nH]c2ccccc2c(=O)n1CCCCNCCCn1c(=O)[nH]c2ccccc2c1=O` , please.
Marked response: 42.9 ± 8.7 min

Exam item: Given `O=c1[nH]c2ccccc2c(=O)n1CCCNCCNCCCn1c(=O)[nH]c2ccccc2c1=O` , state its recorded Duration of convulsion.
Marked response: 30.3 ± 11.1 min

----------
System: mixed culture of nerve cells-glial cells
Assay summary: Protecting effect on NMDA-induced nerve cell death (LDH release)
Assay type: cell-based, ICR mouse
Condition context: 2 μg/ml compound; 100 μM NMDA; LDH release after 24 hours
Quantity name: Inhibitory effect of cell death by NMDA-induced excitable neurotoxicity (%)
Unit % implied. Number only.

// known answers, use as guide
Smiles notation	Target entity	Reported result
O=c1[nH]c2ccccc2c(=O)n1CCCNCCCNCCCn1c(=O)[nH]c2ccccc2c1=O	mixed culture of nerve cells-glial cells	30.3
C[C@]12N[C@H](Cc3ccccc31)c1ccccc12	mixed culture of nerve cells-glial cells	63.6
O=C1CCC(=O)N1CCCNCCCCNCCCn1c(=O)[nH]c2ccccc2c1=O	mixed culture of nerve cells-glial cells	21.8
COCC(=O)N(CCCCNCCCn1c(=O)[nH]c2ccccc2c1=O)CCCn1c(=O)[nH]c2ccccc2c1=O	mixed culture of nerve cells-glial cells	13.5
CC(=O)N(CCCCn1c(=O)[nH]c2ccccc2c1=O)CCCn1c(=O)[nH]c2ccccc2c1=O	mixed culture of nerve cells-glial cells	14.0
O=C(c1ccccc1)N(CCCCNCCCn1c(=O)[nH]c2ccccc2c1=O)CCCn1c(=O)[nH]c2ccccc2c1=O	mixed culture of nerve cells-glial cells	13.7
CC(=O)N(CCCCNCCCn1c(=O)[nH]c2ccccc2c1=O)CCCNC(=O)c1ccc(O)cc1	mixed culture of nerve cells-glial cells	45.2

Attention now shifts to the item below.
Exam item: Which measured Inhibitory effect of cell death by NMDA-induced excitable neurotoxicity value corresponds to `O=C(N(CCCCN(CCCn1c(=O)[nH]c2ccccc2c1=O)C(=O)C(F)(F)F)CCCn1c(=O)[nH]c2ccccc2c1=O)C(F)(F)F` ?
Marked response: 25.0

----------
System: mouse brain cells
Assay summary: Inhibitory effect on ROS production in brain cells (DCF-DA, NMDA-induced)
Format: cell-based
Condition context: 24 h; dose suppressing 50% of production of reactive oxygen compared to control; mouse brain cells; read-out: ROS inhibitory effect ID50
Quantity name: IC50 (µg/mL)
Please state the figure in µg/mL; there is no need to write the unit.

Worked set:
Smiles notation	Measure unit	Reported result
Cn1c(=O)n(CCCNCCCCNCCCn2c(=O)c3ccccc3n(C)c2=O)c(=O)c2ccccc21	µg/mL	21.9
CC(=O)N(CCCCn1c(=O)[nH]c2ccccc2c1=O)CCCn1c(=O)[nH]c2ccccc2c1=O	µg/mL	172
CCOC(=O)N(CCCCNCCCn1c(=O)[nH]c2ccccc2c1=O)CCCn1c(=O)[nH]c2ccccc2c1=O	µg/mL	24.4
O=c1[nH]c2ccccc2c(=O)n1CCCNCCNCCCn1c(=O)[nH]c2ccccc2c1=O	µg/mL	10.1
Cc1ccc(S(=O)(=O)N(CCCCN(CCCn2c(=O)[nH]c3ccccc3c2=O)S(=O)(=O)c2ccc(C)cc2)CCCn2c(=O)[nH]c3ccccc3c2=O)cc1	µg/mL	27.2
CCCCCCn1c(=O)n(CCCNCCCCNCCCn2c(=O)c3ccccc3n(CCCCCC)c2=O)c(=O)c2ccccc21	µg/mL	173
O=C(NCCCNCCCCNCCCn1c(=O)[nH]c2ccccc2c1=O)c1ccc(O)cc1	µg/mL	103
CCCCCCn1c(=O)n(CCCN(CCCCN(CCCn2c(=O)c3ccccc3n(CCCCCC)c2=O)C(=O)OC(C)(C)C)C(=O)OC(C)(C)C)c(=O)c2ccccc21	µg/mL	14.4

Exam item: Which IC50 is reported for this compound? `O=c1[nH]c2ccccc2c(=O)n1CCCNCC=CCNCCCn1c(=O)[nH]c2ccccc2c1=O`
Marked response: 104

Exam item: Quick one: IC50 of `O=C(OCc1ccccc1)N(CCCCNCCCn1c(=O)[nH]c2ccccc2c1=O)CCCn1c(=O)[nH]c2ccccc2c1=O` ?
Marked response: 32.3

Exam item: What value of IC50 has been reported for the following compound? `CC(=O)N(CCCCN(CCCn1c(=O)[nH]c2ccccc2c1=O)Cc1ccccc1)CCCn1c(=O)[nH]c2ccccc2c1=O`
Marked response: 87.3

Exam item: For `O=C1c2ccccc2C(=O)N1CCCNCCCCNCCCn1c(=O)[nH]c2ccccc2c1=O` , what is its reported IC50?
Marked response: 30.9

Exam item: Returns the measured IC50 for the input compound. Input: `O=c1[nH]c2ccccc2c(=O)n1CCCCNCCCn1c(=O)[nH]c2ccccc2c1=O`
Marked response: 17.7

Exam item: # IC50 lookup, item `CCCCCCN(CCCCN(CCCn1c(=O)[nH]c2ccccc2c1=O)C(=O)OC(C)(C)C)CCCn1c(=O)[nH]c2ccccc2c1=O`
Marked response: 79.5

----------
System: mixed culture of nerve cells-glial cells
Assay summary: Protecting effect on NMDA-induced nerve cell death (LDH release)
Assay type: cell-based, ICR mouse
Condition context: 2 μg/ml compound; 100 μM NMDA; LDH release after 24 hours
Could you label it True if measured Inhibitory effect of cell death by NMDA-induced excitable neurotoxicity is 30% or higher, and False otherwise?

Compound	Target entity	Category
O=C(OCc1ccccc1)N(CCCCNCCCn1c(=O)[nH]c2ccccc2c1=O)CCCn1c(=O)[nH]c2ccccc2c1=O [Compound 39]	mixed culture of nerve cells-glial cells	False
O=c1[nH]c2ccccc2c(=O)n1CCNCCCNCCn1c(=O)[nH]c2ccccc2c1=O [Compound 23]	mixed culture of nerve cells-glial cells	True
CC(=O)N(CCCCN(CCCn1c(=O)[nH]c2ccccc2c1=O)Cc1ccccc1)CCCn1c(=O)[nH]c2ccccc2c1=O [Compound 13]	mixed culture of nerve cells-glial cells	False
O=c1[nH]c2ccccc2c(=O)n1CCCNCCCCNCCCn1c(=O)[nH]c2ccccc2c1=O [Compound 2]	mixed culture of nerve cells-glial cells	False
CC(=O)N(CCCCNCCCn1c(=O)[nH]c2ccccc2c1=O)CCCn1c(=O)[nH]c2ccccc2c1=O [Compound 3]	mixed culture of nerve cells-glial cells	True

Here is the next item to consider.
Exam item: Identify whether the reported Inhibitory effect of cell death by NMDA-induced excitable neurotoxicity of the following compound is 30% or greater: O=c1[nH]c2ccccc2c(=O)n1CCCNCCCCN(CCCn1c(=O)[nH]c2ccccc2c1=O)Cc1ccccc1 [Compound 9]
Marked response: True

----------
Tested on: mouse brain cells
Assay summary: Inhibitory effect on ROS production in brain cells (DCF-DA, NMDA-induced)
Assay type: cell-based
Condition context: 24 h; dose suppressing 50% of production of reactive oxygen compared to control; mouse brain cells; read-out: ROS inhibitory effect ID50
Quantity name: IC50 (µg/mL)
The figure you give is taken to be in µg/mL; do not add the unit.

Smiles notation	Reported result
O=c1[nH]c2ccccc2c(=O)n1CCNCCCNCCn1c(=O)[nH]c2ccccc2c1=O	55.5
O=C(N(CCCCN(CCCn1c(=O)[nH]c2ccccc2c1=O)C(=O)C(F)(F)F)CCCn1c(=O)[nH]c2ccccc2c1=O)C(F)(F)F	22.9
O=c1[nH]c2ccccc2c(=O)n1CCCNCCCNCCCn1c(=O)[nH]c2ccccc2c1=O	122

Exam item: Short answer please: IC50, mouse brain cells, entry `Cc1ccc(S(=O)(=O)N(CCCCNCCCn2c(=O)[nH]c3ccccc3c2=O)CCCn2c(=O)[nH]c3ccccc3c2=O)cc1`
Marked response: 31
